molecular target: Dual specificity mitogen-activated protein kinase kinase 7 (Homo sapiens) (UniProt O14733); conditions: at 1 µM
Sequence (O14733 whole entry): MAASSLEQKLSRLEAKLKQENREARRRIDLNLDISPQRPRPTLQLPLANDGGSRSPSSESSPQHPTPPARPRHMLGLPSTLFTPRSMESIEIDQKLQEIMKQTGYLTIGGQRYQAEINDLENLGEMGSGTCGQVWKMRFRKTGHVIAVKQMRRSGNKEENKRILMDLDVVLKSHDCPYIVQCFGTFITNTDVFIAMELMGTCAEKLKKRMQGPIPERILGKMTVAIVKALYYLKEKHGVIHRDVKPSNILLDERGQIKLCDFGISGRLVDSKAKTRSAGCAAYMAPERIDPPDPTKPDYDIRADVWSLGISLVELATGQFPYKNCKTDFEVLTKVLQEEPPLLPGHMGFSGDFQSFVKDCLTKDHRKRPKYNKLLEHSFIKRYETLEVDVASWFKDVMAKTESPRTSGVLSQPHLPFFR
reported-endpoint: residual activity (%)
Answers are plain numbers, in %.

Field: example entries. Status: answers known.
COc1cccc(-c2cc(=O)c3ccccc3o2)c1N	106
COc1ccc(S(=O)(=O)N(CCO)c2ccccc2CN(C)C/C=C/c2ccc(Cl)cc2)cc1	101

API: the following record is the query input.
*Q* # returns recorded residual activity (system: Dual specificity mitogen-activated protein kinase kinase 7 (Homo sapiens) (UniProt O14733)) for `CO[C@@H]1[C@H](N(C)C(=O)c2ccccc2)C[C@H]2O[C@]1(C)n1c3ccccc3c3c4c(c5c6ccccc6n2c5c31)C(=O)NC4`
*A* 111
